Values were extracted from PubChem BioAssay (EPA / NIEHS).

method: APR_HepG2_CellLoss_24hr: Apredica 24-hour HepG2 Assay for Cell Loss (AID 2282908)
condition_label: high-content imaging
Activity calls are given as the source filed them. Rule for the calls: active = hit-call score of the fitted dose curve at least 0.9, where 1 is the maximum; inactive = score below 0.9.
Labels: active, inactive

compound | classification
CNC(=O)Oc1cccc2ccccc12 | active
COCC(=O)N(c1c(C)cccc1C)C(C)C(=O)OC (stereo unspecified) | inactive
CCCCC(O)(Cn1cncn1)c1ccc(Cl)cc1Cl (stereo unspecified) | active
COP(=S)(OC)SCn1nnc2ccccc2c1=O | inactive
CCCN(CC)CC1COC2(CCC(C(C)(C)C)CC2)O1 (stereo unspecified) | inactive
Cc1cnc(C2=NC(C)(C(C)C)C(=O)N2)c(C(=O)O)c1 (stereo unspecified) | inactive

---

Read-out: Monocyte Chemoattractant Protein-1 (MCP1), CCL2 (gene 6347)
method: BSK_SAg_MCP1: BioMAP Diversity Plus: SAg Assay for Monocyte Chemoattractant Protein-1 (MCP1) Biomarker Activity (AID 2283090)
condition_label: primary human HUVEC with PBMC; actives raise or lower the signal
Activity calls are given as the source filed them. Rule for the calls: active = hit-call score of the fitted dose curve at least 0.9, where 1 is the maximum; inactive = score below 0.9.
Outcomes: yes = active, no = inactive

compound | classification
CNC(=O)N(C)c1nnc(C(C)(C)C)s1 | no
CO/N=C(/C1=NOCCO1)c1ccccc1Oc1ncnc(Oc2ccccc2Cl)c1F | yes
Cc1ccc(N=CN(C)C=Nc2ccc(C)cc2C)c(C)c1 | yes
N#Cc1c[nH]cc1-c1cccc2c1OC(F)(F)O2 | yes
C=CCOC(=O)C(C)(C)OC(=O)c1cc(-n2c(=O)cc(C(F)(F)F)n(C)c2=O)ccc1Cl | no
CCN(CC)C(=O)C(C)Oc1cccc2ccccc12 (stereo not drawn) | no
Cc1cnc(C2=NC(C)(C(C)C)C(=O)N2)c(C(=O)O)c1 (stereo not drawn) | no
Clc1nc(Cl)nc(Nc2ccccc2Cl)n1 | no
CC1(C)CON(Cc2ccccc2Cl)C1=O | no
COCc1cnc(C2=NC(C)(C(C)C)C(=O)N2)c(C(=O)O)c1 (stereo not drawn) | no
CCCC(=NOCC)C1=C(O)CC(CC(C)SCC)CC1=O (stereo not drawn) | no
CC1(C)CCC(=Cc2ccc(Cl)cc2)C1(O)Cn1cncn1 (stereo not drawn) | no
Cc1cc(C)nc(Nc2ccccc2)n1 | no
CC(C)(C)C(=O)C(Oc1ccc(Cl)cc1)n1cncn1 (stereo not drawn) | no
CCOc1nc(F)cc2nc(S(=O)(=O)Nc3c(Cl)cccc3Cl)nn12 | no
CCNC(=O)NC(=O)C(C#N)=NOC | no
CCOC(=O)C(C)OC(=O)c1cc(Oc2ccc(C(F)(F)F)cc2Cl)ccc1[N+](=O)[O-] (stereo not drawn) | no
COC(=O)c1c(C(F)F)nc(C(F)(F)F)c(C2=NCCS2)c1CC(C)C | no

---

Read-out: urokinase plasminogen activator (uPA), PLAU (gene 5328)
method: BSK_BE3C_uPA: BioMAP Diversity Plus: BE3C Assay for urokinase plasminogen activator (uPA) Biomarker Activity (AID 2283038)
condition_label: primary human bronchial epithelial cells; actives raise or lower the signal
Activity calls are given as the source filed them. Rule for the calls: active = hit-call score of the fitted dose curve at least 0.9, where 1 is the maximum; inactive = score below 0.9.

molecule | AC50
CCOC(=O)C(C)OC(=O)c1cc(Oc2ccc(C(F)(F)F)cc2Cl)ccc1[N+](=O)[O-] (centres undefined) | inactive
CCOc1cc(C(C)(C)C)ccc1C1COC(c2c(F)cccc2F)=N1 (centres undefined) | 20 µM (active)
CC1(C)C(C(=O)OC(C#N)c2cccc(Oc3ccccc3)c2)C1(C)C (centres undefined) | inactive
Nc1cnn(-c2ccccc2)c(=O)c1Cl | inactive

---

method: APR_HepG2_MitoMembPot_72hr: Apredica 72-hour HepG2 Assay for Mitochondrial Membrane Potential (AID 2282917)
condition_label: imaging, actives raise or lower the signal
Calls of active or inactive are those of the source. How the source made its calls: active means hit-call score of the fitted dose curve at least 0.9, where 1 is the maximum; inactive means score below 0.9.
Outcome codes: 1 = active, -1 = inactive

compound | classification
CS(=O)(=O)c1ccc(C(=O)C2C(=O)CCCC2=O)c([N+](=O)[O-])c1 | -1
CC(C)C1(C)N=C(c2ncccc2C(=O)O)NC1=O (configuration not stated) | -1
O=C(Nc1ccccc1-c1ccc(Cl)cc1)c1cccnc1Cl | -1
CCCN(CC)CC1COC2(CCC(C(C)(C)C)CC2)O1 (configuration not stated) | -1
CC(C)=CC1C(C(=O)OCc2coc(Cc3ccccc3)c2)C1(C)C (configuration not stated) | 1
CCOc1nc(C(Cl)(Cl)Cl)ns1 | -1
CN=C=S | -1
Clc1nc(Cl)nc(Nc2ccccc2Cl)n1 | -1
COCC(C)N(C(=O)CCl)c1c(C)csc1C (configuration not stated) | -1
COCc1cnc(C2=NC(C)(C(C)C)C(=O)N2)c(C(=O)O)c1 (configuration not stated) | -1
CCCCOCN(C(=O)CCl)c1c(CC)cccc1CC | 1
CCSC(=O)N1CCCCCC1 | -1

---

method: LTEA_HepaRG_LDH_cytotoxicity: Cytotoxicity Assessment in the Life Technologies and Expression Analysis (LTEA) Assay (AID 2283563)
Activity calls are given as the source filed them. How the source made its calls: active means hit-call score of the fitted dose curve at least 0.9, where 1 is the maximum; inconclusive means response in the unintended direction; inactive means score below 0.9.
Possible outcomes: 1 = active, 0 = inactive

molecule | classification
CC(C)NC(=O)N1CC(=O)N(c2cc(Cl)cc(Cl)c2)C1=O | 0
C=CCOC(=O)C(C)(C)OC(=O)c1cc(-n2c(=O)cc(C(F)(F)F)n(C)c2=O)ccc1Cl | 0
COC(=O)N(C(=O)N1CO[C@@]2(C(=O)OC)Cc3cc(Cl)ccc3C2=N1)c1ccc(OC(F)(F)F)cc1 | 1
Clc1cccc(C(Cl)(Cl)Cl)n1 | 0
Clc1nc(Cl)nc(Nc2ccccc2Cl)n1 | 0
N#Cc1c[nH]cc1-c1cccc2c1OC(F)(F)O2 | 0
Cc1cnc(C2=NC(C)(C(C)C)C(=O)N2)c(C(=O)O)c1 (stereo not given) | 0
O=C(O)c1c(Cl)ccc2cc(Cl)cnc12 | 0
CCOP(=S)(OCC)Oc1nc(Cl)n(C(C)C)n1 | 0
CN/C(=N\[N+](=O)[O-])NCc1cnc(Cl)s1 | 0
CC(C)N1C(=O)c2ccccc2NS1(=O)=O | 0
CCCN(CC)CC1COC2(CCC(C(C)(C)C)CC2)O1 (stereo not given) | 0
CS(=O)(=O)c1ccc(C(=O)C2C(=O)CCCC2=O)c([N+](=O)[O-])c1 | 0
COC(=O)NC(=S)Nc1ccccc1NC(=S)NC(=O)OC | 0
COc1cc(Cl)c(OC)cc1Cl | 0
CN=C=S | 0
N#CN=C1SCCN1Cc1ccc(Cl)nc1 | 0
CNC(=O)N(C)c1nnc(C(C)(C)C)s1 | 0
COP(=O)(OC)O/C(C)=C/C(=O)N(C)C | 0
CC1(C)C(C(=O)OC(C#N)c2cccc(Oc3ccccc3)c2)C1(C)C (stereo not given) | 0

---

Read-out: Vascular cell adhesion molecule 1 (VCAM1), VCAM1 (gene 7412)
method: BSK_4H_VCAM1: BioMAP Diversity Plus: 4H Assay for Vascular cell adhesion molecule 1 (VCAM1) Biomarker Activity (AID 2283033)
condition_label: primary human endothelial cells (HUVEC); actives raise or lower the signal
Active and inactive are the calls of the source. Rule for the calls: active = hit-call score of the fitted dose curve at least 0.9, where 1 is the maximum; inactive = score below 0.9.
parameter: AC50

molecule | value_measured
O=C(O)c1c(Cl)ccc2cc(Cl)cnc12 | inactive
O=c1n(Cl)c(=O)n(Cl)c(=O)n1Cl | inactive
O=C(Nc1ccccc1-c1ccc(Cl)cc1)c1cccnc1Cl | inactive
CC(C)=CC1C(C(=O)OCc2coc(Cc3ccccc3)c2)C1(C)C (stereo unspecified) | 4.5 µM (active)
COC(=O)N(C(=O)N1CO[C@@]2(C(=O)OC)Cc3cc(Cl)ccc3C2=N1)c1ccc(OC(F)(F)F)cc1 | inactive
CN=C=S | inactive

---

Read-out: Cytochrome P450 7A1 (Homo sapiens) (UniProt P22680)
method: LTEA_HepaRG_CYP7A1: Life Technologies and Expression Analysis (LTEA) Assay for Cytochrome P450 7A1 (CYP7A1) using HepaRG (AID 2283496)
condition_label: mRNA level, 48 h; actives raise or lower the signal
Active and inactive are the calls of the source. Rule for the calls: active = hit-call score of the fitted dose curve at least 0.9, where 1 is the maximum; inactive = score below 0.9.

molecule | AC50
COc1cc(OC)nc(NC(=O)NS(=O)(=O)c2ncccc2OCC(F)(F)F)n1 | inactive
COC(=O)NC(=S)Nc1ccccc1NC(=S)NC(=O)OC | inactive
COC(=O)c1c(C(F)F)nc(C(F)(F)F)c(C2=NCCS2)c1CC(C)C | inactive
CS(=O)(=O)c1cc(C(F)(F)F)ccc1C(=O)c1cnoc1C1CC1 | inactive
COCC(C)N(C(=O)CCl)c1c(C)csc1C (stereo unspecified) | 29.5 µM (active)
CC(C)=CC1C(C(=O)OCc2coc(Cc3ccccc3)c2)C1(C)C (stereo unspecified) | inactive
CC(C)NC(=O)N1CC(=O)N(c2cc(Cl)cc(Cl)c2)C1=O | 13.1 µM (active)
CC(C)N1C(=O)c2ccccc2NS1(=O)=O | inactive
OC(c1ccc(Cl)cc1)(c1ccc(Cl)cc1)C(Cl)(Cl)Cl | 75.9 µM (active)
CCOc1nc(F)cc2nc(S(=O)(=O)Nc3c(Cl)cccc3Cl)nn12 | 36.7 µM (active)
CC1(C)CCC(=Cc2ccc(Cl)cc2)C1(O)Cn1cncn1 (stereo unspecified) | 4.96 µM (active)
